test description: yeast display, Sf9 membrane polyspecificity reagent, FACS + sequencing; frameworks hold sequencing errors
experimental readout: polyreactivity (PSR sort gate)

| sequence string | observed result |
| --- | --- |
| QLQLVESGGGLDQAGGSLRLSCAASGFTFVSYAMGWYRQAPGKERELVAVISYRAGSTYYADSVKGRFTISRDNAKNTVYLQMYSLKPEDTAVYYCATDRYSRRNDYWGQGTQVTVSS | high polyreactivity |
| QVHLVESGGGLVQAGGTLRLSCAASGRIFHPNEMRWYRQAPGKEWELVAAISWRGTSTYADSVKGRFTISRDNAKNTVYLQMNSLKPEDTAVYYCVRRYTGLPGWSSYGSYESGYWGQGTQVTVSS | high polyreactivity |
| QVQLVESGGGLVQAGGSLRLSCAASGFTFAGYAMGWSRQAPGKERELVAGIRSSGARTYYADSVKGRFTISRDNAKNTVYLQMNSLKPEDTAVDYCAKTDGFYRGYGYWGQGTQVTVSS | low polyreactivity |
| QLQLVESVGGLVQAGGSLRLSCASSGRTFDYNAMGWYRQAPGKERELVARISNGDSTYADSVKGRFTISRDNAKNTVYLQMNSLKPVDTAVYYCAKSTRRGGVALGEYDYWGQGTQVTVSS | low polyreactivity |
| QVQLVESGGGLVQAGGSLRLSCAASGITFMFYAMGWSRQAPGKVRELVAAISSSGGTTYYADSVKGRFTISRDNAKNTVYLQMNSLTPEDTAVYYCAARRVLASWYDYNYWGQGTQVTVSS | high polyreactivity |

Look up polyreactivity (PSR sort gate): "QLQLVESGGGLVQAGGSLRLSCAPSGRIFPSYAMGWYRQAPGKERELVAPISWSGVSTYADSVKGRFTISRDNAKNTVYLQMNSVKPEDTAVYFCAAQYTLVIFPYGGYVIEYEYWGQGTQVTVSS"
low polyreactivity

# iterate: "QVQLVESGGGIVQAGGSLRLSCAASGITFQRNALGWYRQAPGKERELVAAISKSGGSTYYADSVKARFTISRDNAKNTVYLQMNSLKPEDTAVYDCAAPVWRYYRGKTFDFWGQGTQVTVSS"
high polyreactivity

# iterate: "QDQLVESVGGLVQAGGSLRLSCAASGITFYYSAMGWDRQAPGKERELVAAISFRGGSTYYADSVKGRFTSSRDNAKNTVYLQMNSLKPEDTAVYYCAAETSPSWYTWVTYDYWGQGTQVTVSS"
high polyreactivity

# iterate: "QVQLGESGGGLVQAGGSLRLSCAASGSTFNENAMGWYRQAPGKERELVAAISNDGSTTYADSVKGRFTISRDNAKNTVYLQMNSLKPEDTALYYCNAVSYIDTQSSLGDSWGQGTQVTVSS"
low polyreactivity

# iterate: "QDQLVESGGGLVQAGGSLRLSCAASGRIFTGNVMGWYRQAPGKERELVAAITYRGGSTYYADSVKGRFTISRDNAKNTVFLQMNSLKPEDTAVYYCNTGWDPYGYDYWGQGTQVTVSS"
low polyreactivity
